Test: The drug is tested on WLS-082 corresponding to human gut metagenome with ENA study accession number: PRJEB37062 and ENA sample accession number: ERS12561751 for biotransformation under anaerobic condition. The drug concentrations were measured over 9 timepoints collected between 0 and 24 hours of incubation by liquid-chromatography-coupled mass spectrometry (LC–MS); note: call rule not given here
Conditions: 2 µM
Measured Property: Bacterial Biotransformation

Molecule: COC1=CC(=O)C[C@@H](C)[C@]12Oc1c(Cl)c(OC)cc(OC)c1C2=O
Result Value: Compound metabolized

Molecule: COC(=O)C1=C(C)NC(C)=C(C(=O)OC(C)C)C1c1cccc2nonc12 (stereo not drawn)
Result Value: Compound metabolized

---

Details: human gut metagenome, 24 h, 2 µM
Measured Property: Bacterial Biotransformation

Compound: COc1ccccc1N1CCN(CC(O)COc2cccc3ccccc23)CC1 (stereo not drawn)
Result Value: Compound NOT metabolized
--
Compound: CN1CCc2c(c3ccccc3n2Cc2ccccc2)C1.CN1CCc2c(c3ccccc3n2Cc2ccccc2)C1.O=S(=O)(O)c1cccc2c(S(=O)(=O)O)cccc12
Result Value: Compound NOT metabolized

---

Settings: human gut metagenome, 24 h, 2 µM
Measured Property: Bacterial Biotransformation

Worked examples follow.
Compound: CCN(CC)CCNC(=O)c1cc(Cl)c(N)cc1OC [METOCLOPRAMIDE]
Bacterial Biotransformation: Compound NOT metabolized
//
Compound: CC(C)NCC(O)c1ccc(NS(C)(=O)=O)cc1 (configuration not stated)
Bacterial Biotransformation: Compound NOT metabolized
//
Compound: CCCCC1=NC2(CCCC2)C(=O)N1Cc1ccc(-c2ccccc2-c2nnn[nH]2)cc1
Bacterial Biotransformation: Compound metabolized
//
Compound: Cc1nc2n(c(=O)c1CCN1CCC(c3noc4cc(F)ccc34)CC1)CCCC2
Bacterial Biotransformation: Compound metabolized
//
Compound: CCCC(=O)Nc1ccc(OCC(O)CNC(C)C)c(C(C)=O)c1 (configuration not stated)
Bacterial Biotransformation: Compound metabolized

Provide measured Bacterial Biotransformation value, entry: C=CCc1ccccc1OCC(O)CNC(C)C (configuration not stated)
Compound NOT metabolized

For the compound CCc1nc(N)nc(N)c1-c1ccc(Cl)cc1 , give its reported Bacterial Biotransformation.
Compound NOT metabolized

Let me know recorded Bacterial Biotransformation for COc1ccccc1OCC(O)COC(N)=O (configuration not stated) , thanks.
Compound NOT metabolized

Supply recorded Bacterial Biotransformation for COc1ccc2c3c1O[C@H]1C[C@@H](O)C=C[C@@]31CCN(C)C2 here.
Compound metabolized

Return the recorded Bacterial Biotransformation value; entry: O=C(NCc1ccccc1)OCCO [BURAMATE]
Compound NOT metabolized

Specify Bacterial Biotransformation for CC(CN1c2ccccc2Sc2ccccc21)N(C)C (configuration not stated) and stop.
Compound NOT metabolized

Name the recorded Bacterial Biotransformation of the item CC(C)c1c(C(=O)Nc2ccccc2)c(-c2ccccc2)c(-c2ccc(F)cc2)n1CC[C@@H](O)C[C@@H](O)CC(=O)O in your answer.
Compound metabolized

---

Experiment: The drug is tested on Z-021 corresponding to metagenome with ENA study accession number: PRJEB37062 and ENA sample accession number: ERS12561820 for biotransformation under anaerobic condition. The drug concentrations were measured over 9 timepoints collected between 0 and 24 hours of incubation by liquid-chromatography-coupled mass spectrometry (LC–MS)
Conditions: 2 µM

Molecule: CCCC(=O)Nc1ccc(OCC(O)CNC(C)C)c(C(C)=O)c1 (centres undefined) [ACEBUTOLOL]
Bacterial Biotransformation: Compound metabolized

Molecule: COc1ccccc1N1CCN(CC(O)COc2cccc3ccccc23)CC1 (centres undefined) [NAFTOPIDIL]
Bacterial Biotransformation: Compound metabolized

Molecule: COC(=O)Nc1nc2ccc(C(=O)c3ccccc3)cc2[nH]1 [MEBENDAZOLE]
Bacterial Biotransformation: Compound metabolized
